Data credit: ChEMBL document CHEMBL1944599

Measured log10 of EC50, listed per entry.
Molecular target: Beta-2 adrenergic receptor (Cavia porcellus, UniProt Q8K4Z4)
Sequence (Q8K4Z4 whole entry): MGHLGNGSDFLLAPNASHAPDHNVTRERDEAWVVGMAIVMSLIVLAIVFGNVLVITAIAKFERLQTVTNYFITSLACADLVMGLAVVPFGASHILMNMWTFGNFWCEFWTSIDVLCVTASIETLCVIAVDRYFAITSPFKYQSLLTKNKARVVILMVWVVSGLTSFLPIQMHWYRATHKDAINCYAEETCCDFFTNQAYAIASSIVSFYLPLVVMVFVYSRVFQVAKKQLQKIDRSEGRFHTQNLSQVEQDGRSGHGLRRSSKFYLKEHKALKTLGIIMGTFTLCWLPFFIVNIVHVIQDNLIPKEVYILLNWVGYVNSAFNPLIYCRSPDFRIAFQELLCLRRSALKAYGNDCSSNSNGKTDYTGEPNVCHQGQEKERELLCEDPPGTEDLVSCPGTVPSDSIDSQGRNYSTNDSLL
Assay: Agonist activity at beta2 adrenoceptor in guinea pig trachea assessed as reduction in methacholine-induced contraction
# log10 transformed; quantity=EC50; unit=pM

Here are 3 compounds together with their reported answers.
| SMILES | log10 of EC50 |
| --- | --- |
| O=c1[nH]c2c(O)ccc([C@@H](O)CNCCc3cccc(CNCCc4ccccn4)c3)c2s1 | 2.50 |
| COc1ccccc1CNCc1cccc(CCNC[C@H](O)c2ccc(O)c3[nH]c(=O)sc23)c1 | 2.70 |
| O=c1[nH]c2c(O)ccc(CCNCCc3cccc(-c4cccc(CNCc5ccccc5)c4)c3)c2s1 | 2.70 |

Tested system Beta-2 adrenergic receptor (Cavia porcellus, UniProt Q8K4Z4); log10 of EC50 recorded for O=c1[nH]c2c(O)ccc([C@@H](O)CNCCc3cccc(CNCCc4ccccc4F)c3)c2s1 was 2.40

Let me check: COCCNCc1cccc(CCNC[C@H](O)c2ccc(O)c3[nH]c(=O)sc23)c1 , system Beta-2 adrenergic receptor (Cavia porcellus, UniProt Q8K4Z4), measured log10 of EC50 is 3.50

Value sought: log10 of EC50, system Beta-2 adrenergic receptor (Cavia porcellus, UniProt Q8K4Z4), item C[C@@H](NCc1ccccc1-c1ccc(CCNCCc2ccc(O)c3[nH]c(=O)sc23)cc1)c1ccccc1 . Result: 2.40

Fill in: Beta-2 adrenergic receptor (Cavia porcellus, UniProt Q8K4Z4) log10 of EC50 for Cc1cccc2c(CCNCc3ccc(CCNC[C@H](O)c4ccc(O)c5[nH]c(=O)sc45)cc3)c[nH]c12 = 2.30
